test system: MCF7; assay: Agonist activity at FGFR1alpha in human MCF7 cells assessed as increase in ERK phosphorylation at 15 uM after 10 mins by Western blot analysis; assay type: cell-based
Active and inactive are the calls of the source. The calls are words filed in the database; no cut-off is given here. *1 amine or outer side, *2 acyl side, *3 side chain or, on linkers, in order; H or OH if unused. Where a SMILES comes first, the peptide text is derived from it. [ ]: non-standard residue; d: D form. Gly(N-CH2CH2C6H4-4Cl) = O=C(O)CNCCc1ccc(Cl)cc1; X1 = O=C(CN(Cc1cccc(C(F)(F)F)c1)[*:1])[*:2]; Nrpe = C[C@@H](NCC(=O)O)c1ccccc1; X2 = O=C(CN(CC1CCCO1)[*:1])[*:2]; NFurfurylGly = O=C(O)CNCc1ccco1; Gly(N-cPent) = O=C(O)CNC1CCCC1; NAllylGly = C=CCNCC(=O)O; Nphe = O=C(O)CNCc1ccccc1; Nlys = NCCCCNCC(=O)O
Possible outcomes: True for active, False for inactive

C=CCN(CC(=O)N(CCCCN)CC(=O)N(CCCCN)CC(=O)N[C@@H](CS)C(N)=O)C(=O)CN(C(=O)CN(Cc1ccccc1)C(=O)CN(C(=O)CN(Cc1ccccc1)C(=O)CNC1CCCC1)C1CCCC1)[C@H](C)c1ccccc1 (H-[Gly(N-cPent)][Nphe][Gly(N-cPent)][Nphe][Nrpe][NAllylGly][Nlys][Nlys]C-NH2) | True
C=CCN(CC(=O)N(CC(=O)N(CCCCN)CC(=O)N(CCCCN)CC(=O)N[C@@H](CS)C(N)=O)Cc1ccco1)C(=O)CN(Cc1ccco1)C(=O)CN(CC1CCCO1)C(=O)CN(C(=O)CNCCc1ccc(Cl)cc1)C1CCCC1 (stereo partly drawn) (H-[Gly(N-CH2CH2C6H4-4Cl)][Gly(N-cPent)][X2][NFurfurylGly][NAllylGly][NFurfurylGly][Nlys][Nlys]C-NH2) | False
C=CCN(CC(=O)N(CC(=O)N(CCCCN)CC(=O)N(CCCCN)CC(=O)N[C@@H](CS)C(N)=O)[C@H](C)c1ccccc1)C(=O)CN(Cc1ccco1)C(=O)CN(C(=O)CN(Cc1cccc(C(F)(F)F)c1)C(=O)CNCc1ccccc1)C1CCCC1 (H-[Nphe][X1][Gly(N-cPent)][NFurfurylGly][NAllylGly][Nrpe][Nlys][Nlys]C-NH2) | True

---

species: Homo sapiens; assay: Binding affinity to Fc-tagged FGFR1alpha (unknown origin) at 25 uM after 1 hr by Texas-red labeled anti-Fc detection based microarray assay
The source made the active and inactive calls. The calls are words filed in the database; no cut-off is given here. *1 amine or outer side, *2 acyl side, *3 side chain or, on linkers, in order; H or OH if unused. Where a SMILES comes first, the peptide text is derived from it. [ ]: non-standard residue; d: D form. Gly(N-(CH2)3N-pyrrolidone) = O=C(O)CNCCCN1CCCC1=O; Gly(N-CH2CH2C6H4-4Cl) = O=C(O)CNCCc1ccc(Cl)cc1; X1 = O=C(CN(Cc1cccc(C(F)(F)F)c1)[*:1])[*:2]; Nrpe = C[C@@H](NCC(=O)O)c1ccccc1; X2 = O=C(CN(CC1CCCO1)[*:1])[*:2]; NFurfurylGly = O=C(O)CNCc1ccco1; Gly(N-cPent) = O=C(O)CNC1CCCC1; NAllylGly = C=CCNCC(=O)O; Nphe = O=C(O)CNCc1ccccc1; Nlys = NCCCCNCC(=O)O
ASSAY_ENDPOINT: Activity

C=CCN(CC(=O)N(CCCCN)CC(=O)N(CCCCN)CC(=O)N[C@@H](CS)C(N)=O)C(=O)CN(C(=O)CN(Cc1ccccc1)C(=O)CN(C(=O)CN(Cc1ccccc1)C(=O)CNC1CCCC1)C1CCCC1)[C@H](C)c1ccccc1 (H-[Gly(N-cPent)][Nphe][Gly(N-cPent)][Nphe][Nrpe][NAllylGly][Nlys][Nlys]C-NH2) | Active
C=CCN(CC(=O)N(CC(=O)N(CCCCN)CC(=O)N(CCCCN)CC(=O)N[C@@H](CS)C(N)=O)Cc1ccco1)C(=O)CN(Cc1ccco1)C(=O)CN(CC1CCCO1)C(=O)CN(C(=O)CNCCc1ccc(Cl)cc1)C1CCCC1 (some centres undefined) (H-[Gly(N-CH2CH2C6H4-4Cl)][Gly(N-cPent)][X2][NFurfurylGly][NAllylGly][NFurfurylGly][Nlys][Nlys]C-NH2) | Active
C=CCN(CC(=O)N(CC(=O)N(CCCN1CCCC1=O)CC(=O)N(CCCCN)CC(=O)N(CCCCN)CC(=O)N[C@@H](CS)C(N)=O)CC1CCCO1)C(=O)CN(C(=O)CN(Cc1cccc(C(F)(F)F)c1)C(=O)CNCCCN1CCCC1=O)[C@H](C)c1ccccc1 (some centres undefined) (H-[Gly(N-(CH2)3N-pyrrolidone)][X1][Nrpe][NAllylGly][X2][Gly(N-(CH2)3N-pyrrolidone)][Nlys][Nlys]C-NH2) | Active
C=CCN(CC(=O)N(CC(=O)N(CCCCN)CC(=O)N(CCCCN)CC(=O)N[C@@H](CS)C(N)=O)[C@H](C)c1ccccc1)C(=O)CN(Cc1ccco1)C(=O)CN(C(=O)CN(Cc1cccc(C(F)(F)F)c1)C(=O)CNCc1ccccc1)C1CCCC1 (H-[Nphe][X1][Gly(N-cPent)][NFurfurylGly][NAllylGly][Nrpe][Nlys][Nlys]C-NH2) | Active

---

species: Homo sapiens; experiment: Binding affinity to Fc-tagged FGFR1alpha (unknown origin) at 50 uM after 1 hr by Texas-red labeled anti-Fc detection based microarray assay
Active and inactive are the calls of the source. The rule behind the calls is not given here. *1 amine or outer side, *2 acyl side, *3 side chain or, on linkers, in order; H or OH if unused. Where a SMILES comes first, the peptide text is derived from it. [ ]: non-standard residue; d: D form. Gly(N-(CH2)3N-pyrrolidone) = O=C(O)CNCCCN1CCCC1=O; Gly(N-CH2CH2C6H4-4Cl) = O=C(O)CNCCc1ccc(Cl)cc1; X1 = O=C(CN(Cc1cccc(C(F)(F)F)c1)[*:1])[*:2]; Nrpe = C[C@@H](NCC(=O)O)c1ccccc1; X2 = O=C(CN(CC1CCCO1)[*:1])[*:2]; NFurfurylGly = O=C(O)CNCc1ccco1; Gly(N-cPent) = O=C(O)CNC1CCCC1; NAllylGly = C=CCNCC(=O)O; Nlys = NCCCCNCC(=O)O
ASSAY_ENDPOINT: Activity

C=CCN(CC(=O)N(CC(=O)N(CCCCN)CC(=O)N(CCCCN)CC(=O)N[C@@H](CS)C(N)=O)Cc1ccco1)C(=O)CN(Cc1ccco1)C(=O)CN(CC1CCCO1)C(=O)CN(C(=O)CNCCc1ccc(Cl)cc1)C1CCCC1 (some centres not stated) (H-[Gly(N-CH2CH2C6H4-4Cl)][Gly(N-cPent)][X2][NFurfurylGly][NAllylGly][NFurfurylGly][Nlys][Nlys]C-NH2) | Active
C=CCN(CC(=O)N(CC(=O)N(CCCN1CCCC1=O)CC(=O)N(CCCCN)CC(=O)N(CCCCN)CC(=O)N[C@@H](CS)C(N)=O)CC1CCCO1)C(=O)CN(C(=O)CN(Cc1cccc(C(F)(F)F)c1)C(=O)CNCCCN1CCCC1=O)[C@H](C)c1ccccc1 (some centres not stated) (H-[Gly(N-(CH2)3N-pyrrolidone)][X1][Nrpe][NAllylGly][X2][Gly(N-(CH2)3N-pyrrolidone)][Nlys][Nlys]C-NH2) | Active
